Molecular target: human APJ receptor (Homo sapiens)
Construct: expressed in transfected cells
Sequence (P35414 1-380): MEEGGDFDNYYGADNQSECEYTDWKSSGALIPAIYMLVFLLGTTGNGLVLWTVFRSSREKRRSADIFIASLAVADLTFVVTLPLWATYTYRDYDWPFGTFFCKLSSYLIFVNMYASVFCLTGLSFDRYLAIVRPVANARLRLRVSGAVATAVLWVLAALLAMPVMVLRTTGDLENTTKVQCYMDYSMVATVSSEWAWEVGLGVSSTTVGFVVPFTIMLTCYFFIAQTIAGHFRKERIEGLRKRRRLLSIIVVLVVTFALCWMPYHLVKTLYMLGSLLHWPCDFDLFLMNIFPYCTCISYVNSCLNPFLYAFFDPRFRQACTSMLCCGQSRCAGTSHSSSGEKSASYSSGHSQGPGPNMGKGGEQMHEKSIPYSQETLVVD
Experiment: Intracellular cAMP accumulation assay (APJ hcAMP, HTRF)
Type: cell-based
Conditions: Table 3; HEK293 cells stably expressing human APJ receptor; read-out: APJ cAMP Human EC50
Experimental: Intracellular cAMP Accumulation Assay HEK293 cells stably expressing human APJ receptor were used to assess the activity of compounds. Cultured cells were detached and resuspended in the cAMP Homogeneous Time-Resolved Fluorescence (HTRF) assay buffer (Cisbio cat; #62AM4PEJ). The assay was performed in 384-well assay plates (Perkin-Elmer; cat #6008289) according to assay protocol provided by the manufacturer. […] The fluorescence emission ratio was measured using fluorometer. […]
READOUT: EC50

See these solved cases before continuing.
[
  {
    "COMPOUND": "CCC[C@@H](NC(=O)c1ccc(-c2c(Cl)cccc2-c2nc3cc(Cl)c(C)cc3[nH]2)c(C(=O)O)c1)c1ccccc1 (atropisomer, axis not shown) [Example 97]",
    "EC50": "10 to 100 nM"
  },
  {
    "COMPOUND": "CCC[C@@H](NC(=O)c1ccc(-c2c(Cl)cccc2-c2nc3cc(OC)c(F)cc3[nH]2)c(C(=O)OC)c1)c1ccccc1 (atropisomer, axis not shown) [Example 83]",
    "EC50": "10 to 100 nM"
  },
  {
    "COMPOUND": "COc1cc2[nH]c(-c3cccc(Cl)c3-c3ccc(C(=O)N4CCCC4)cc3C(=O)O)nc2cc1F [Example 124]",
    "EC50": "10 to 100 nM"
  },
  {
    "COMPOUND": "CCC[C@H](NC(=O)c1ccc(-c2c(Cl)cccc2-c2nc3cc(OC)c(F)cc3[nH]2)c(CO)c1)c1ccccc1 (stereo in doubt) [Example 131]",
    "EC50": "10 to 100 nM"
  },
  {
    "COMPOUND": "COc1cc2[nH]c(-c3cccc(Cl)c3-c3ccc(C(=O)NCC(c4ccccc4)c4ccccc4)cc3C(=O)O)nc2cc1F [Example 117]",
    "EC50": "10 to 100 nM"
  },
  {
    "COMPOUND": "CCC[C@@H](NC(=O)c1ccc(-c2c(C)cccc2-c2nc3cc(OC)ccc3[nH]2)c(C(=O)O)c1)c1ccccc1 [Example 142]",
    "EC50": "< 10 nM"
  },
  {
    "COMPOUND": "CCC[C@@H](NC(=O)c1ccc(-c2c(C)cccc2-c2nc3cc(C(F)(F)F)ccc3[nH]2)c(C(=O)O)c1)c1ccccc1 (single isomer, unassigned) [Example 146]",
    "EC50": "< 10 nM"
  },
  {
    "COMPOUND": "CCC[C@@H](NC(=O)c1ccc(-c2c(C)cccc2-c2nc3cc(C(C)(C)C)ccc3[nH]2)c(C(=O)O)c1)c1ccccc1 [Example 144]",
    "EC50": "< 10 nM"
  }
]

In: Kindly state the measured EC50 obtained for CCC[C@@H](NC(=O)c1ccc(-c2c(Cl)cccc2-c2nc3cc(Cl)cc(Cl)c3[nH]2)c(C(=O)O)c1)c1ccccc1 (atropisomer, axis not shown) [Example 94] with human APJ receptor (Homo sapiens).
Out: < 10 nM

In: Kindly state the measured EC50 obtained for CCC[C@@H](NC(=O)c1ccc(-c2c(Cl)cccc2-c2nc3cc(OC)c(F)cc3[nH]2)c(C(=O)NOC)c1)c1ccccc1 [Example 127] with human APJ receptor (Homo sapiens).
Out: < 10 nM

In: Kindly state the measured EC50 obtained for COc1cc2[nH]c(-c3cccc(Cl)c3-c3ccc(C(=O)N4CCC(O)CC4)cc3C(=O)O)nc2cc1F [Example 123] with human APJ receptor (Homo sapiens).
Out: 10 to 100 nM
